System: OCI-AML2
procedure-text: cell viability relative to vehicle control; higher = less cytotoxic;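 note: after 48 h exposure read by CellTiter-Glo luminescence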
recorded-conditions: 10 µM; SRSF2 genotype: P95H/wt
property-name: cell viability (%)
Hi! Could you send only the number? It should be in %, unit omitted.

Example compounds with recorded cell viability:
Field: cell viability (OCI-AML2). Entry: COc1ccc2cc3[n+](cc2c1OC)CCc1cc2c(cc1-3)OCO2 [Berberine chloride]
48.9

Field: cell viability (OCI-AML2). Entry: CC1(C)CC[C@]2(NC(=O)C(C)(F)F)CC[C@]3(C)[C@H](C(=O)C=C4[C@@]5(C)C=C(C#N)C(=O)C(C)(C)[C@@H]5CC[C@]43C)[C@@H]2C1 [Omaveloxolone (RTA-408)]
0.23

Field: cell viability (OCI-AML2). Entry: CC(C)(Sc1ccncc1-c1ccc(C#N)c2ccccc12)C(=O)O [Verinurad (RDEA3170)]
109

Continuing:
Field: cell viability (OCI-AML2). Entry: COc1ccc(C(=O)O)cc1O
82.2

###

System: MOLM14
procedure-text: cell viability relative to vehicle control; higher = less cytotoxic
recorded-conditions: 10 µM; SRSF2 genotype: SRSF2 P95H/wt
property-name: cell viability (%)
Hi! Could you send only the number? It should be in %, unit omitted.

Sample CCCc1cc2c(N3CCN(C4=NCC(C)(C)S4)CC3)ncnc2s1 — what was its cell viability?
76.2

Here is another compound to look at.
Sample Cc1ccc(Nc2ncc3c(n2)N(C)C(=O)N(c2cc(NC(=O)c4cccc(C(F)(F)F)c4)ccc2C)C3)cn1 — what was its cell viability?
17.9

###

System: K562
procedure-text: cell viability relative to vehicle control; higher = less cytotoxic
recorded-conditions: 10 µM; SRSF2 genotype: SRSF2 wt/wt
Listed here: items and their measured cell viability.
Hi! Could you send only the number? It should be in %, unit omitted.

Example compounds with recorded cell viability:
Sample Cn1c(=O)c(Oc2ccc(F)cc2F)cc2cnc(NC(CCO)CCO)nc21 — what was its cell viability?
90.4

Sample COc1cc(OC2CCN(C)CC2)ccc1Nc1ncc2c(n1)n(C1CCCC1)c(=O)n2C — what was its cell viability?
78.1

Sample CN(N=O)C(=O)NC1C(O)OC(CO)C(O)C1O (stereo not given) [Streptozotocin (STZ)] — what was its cell viability?
105

Sample NC(=O)Cc1cccc(C(=O)c2ccccc2)c1N [Nepafenac] — what was its cell viability?
91.7

Here is another compound to look at.
Sample Cc1ccc2c(c1)C(=O)C1(O)CCN(c3ccccc3)C1=N2 (single isomer, unassigned; (-)) [(-)-Blebbistatin] — what was its cell viability?
94

###

Tested on: MARIMO
procedure-text: cell viability relative to vehicle control; higher = less cytotoxic
recorded-conditions: 10 µM; SRSF2 genotype: SRSF2 wt/wt
Listed here: items and their measured cell viability.
Hi! Could you send only the number? It should be in %, unit omitted.

Sample CCCCCCCCOc1ccccc1C(=O)Nc1ccc(C(=O)OCC[N+](C)(CC)CC)cc1 [Otilonium Bromide] — what was its cell viability?
84.5

Sample Cc1nc2ccc(NC(=O)Nc3ccnc4cccnc34)cc2o1 — what was its cell viability?
89.9

Sample CCN(CC)c1ccc2cc(-c3nc4ccccc4s3)c(=O)oc2c1 — what was its cell viability?
112

Sample CCn1c(C(=O)N(C2CC2)C2CC2)cc2c3c(ncn3C)c(Nc3cc(C)n(C)n3)nc21 — what was its cell viability?
102

Sample CC1CCC2(C(=O)O)CCC3(C)C(=CCC4C5(C)CCC(OC6OCC(O)C(O)C6O)C(C)(C)C5CCC43C)C2C1(C)O (stereo not given) [Ziyuglycoside II] — what was its cell viability?
99

Sample N=C(NOCC(O)CN1CCCCC1)c1cccnc1 (stereo not given) — what was its cell viability?
99.2

Sample CC[C@@H]([C@H](C)O)n1ncn(-c2ccc(N3CCN(c4ccc(OC[C@@H]5CO[C@@](Cn6cncn6)(c6ccc(F)cc6F)C5)cc4)CC3)cc2)c1=O — what was its cell viability?
59

Sample CN1CCN(c2nc(C3=C(c4c[nH]c5ccccc45)C(=O)NC3=O)c3ccccc3n2)CC1 — what was its cell viability?
80.5

Continuing:
Sample COc1ccc(-c2cc(=O)c3c(O)c(OC)c(O)cc3o2)cc1OC — what was its cell viability?
98.2

Sample OCC1OC(Oc2ccc(O)cc2)C(O)C(O)C1O (stereo not given) — what was its cell viability?
111

Sample C[C@@H]1CC[C@@]2(OC1)O[C@H]1C[C@H]3[C@@H]4CC=C5C[C@@H](O[C@@H]6O[C@H](CO)[C@@H](O)[C@H](O)[C@H]6O)CC[C@]5(C)[C@H]4CC[C@]3(C)[C@H]1[C@@H]2C — what was its cell viability?
78.7

Sample CN1Cc2c(ccc3c2OCO3)[C@@]2(C)[C@@H](O)Cc3cc4c(cc3[C@@H]12)OCO4 — what was its cell viability?
9.1

Sample CC(/C=C/C=C(\C)C(=O)O[C@@H]1O[C@H](CO[C@@H]2O[C@H](CO)[C@@H](O)[C@H](O)[C@H]2O)[C@@H](O)[C@H](O)[C@H]1O)=C\C=C\C=C(C)\C=C\C=C(/C)C(=O)O[C@@H]1O[C@H](CO[C@@H]2O[C@H](CO)[C@@H](O)[C@H](O)[C@H]2O)[C@@H](O)[C@H](O)[C@H]1O — what was its cell viability?
100

Sample Cn1c(=O)cc(N2CCC[C@@H](N)C2)n(Cc2ccccc2C#N)c1=O — what was its cell viability?
97.1

Sample CC(=O)O[C@H](CC=C(C)C)C1=CC(=O)c2c(O)ccc(O)c2C1=O — what was its cell viability?
0.66

// provenance: the supplement of paper PMC10981050
